Origin of the recorded values: ChEMBL document CHEMBL1201862

# System: UACC-62
# protocol: NCI tumour cell line growth inhibition, 48 h
Activity calls are given as the source filed them. Rule as the data show it: active = GI50 up to about 1.1 µM and inactive = higher.
Task for the reader: assign each of the following compounds its reported GI50.

query: # query: GI50 of entry "COc1ncc(C#CC(=O)c2ccccc2OC)c(OC)n1"
result: 2.6 µM (inactive)

query: # query: GI50 of entry "Brc1cccc(/C=N/C23CC4CC(CC(C4)C2)C3)c1"
result: > 100 µM (inactive)

query: # query: GI50 of entry COC(=O)C12C(=O)O[C@H](C)C1(O)C(C)C(=O)N2C (stereo partly specified)
result: > 100 µM (inactive)

query: # query: GI50 of entry "CCOC(=O)c1cc(=O)c2ccnc3c2n1CCS3"
result: > 100 µM (inactive)

query: # query: GI50 of entry "C=C1c2nc3ccccc3n2C=C(c2ccc(Cl)cc2)N1c1ccccc1"
result: 18.3 µM (inactive)

query: # query: GI50 of entry "CCOC(=O)C(=Cc1ccc(C(=O)OC)cc1)C(=O)OCC"
result: 2.04 µM (inactive)

###

# Test system: KM12
# protocol: NCI tumour cell line growth inhibition, 48 h
Active and inactive are the calls of the source. Rule as the data show it: active = GI50 up to about 1.1 µM and inactive = higher. Where a SMILES comes first, the peptide text is derived from it. [ ]: non-standard residue; d: D form. The star is where a group is joined. Cbz = O=C(OCc1ccccc1)*; Aib = CC(C)(N)C(=O)O; OBn = c1ccc(CO*)cc1
reported_metric: GI50

query: # query: GI50 of entry CC(NC(=O)C(C)(C)NC(=O)C(CC(=O)OCc1ccccc1)NC(=O)OCc1ccccc1)C(N)=O (centres undefined) (Cbz-Asp(OBn)-[Aib]-Ala-NH2; configuration not given here)
result: > 100 µM (inactive)

query: # query: GI50 of entry "Cn1c(=O)nc2n(-c3ccc(F)cc3)c3ccccc3nc-2c1=O"
result: 24.7 µM (inactive)

query: # query: GI50 of entry CCCCCCCCCCCC1CCCC(C)N1 (centres undefined)
result: 30.9 µM (inactive)

query: # query: GI50 of entry CCCCOC(=O)C1CN2C=CC=NC2=NC1(C(F)(F)F)C(F)(F)F (centres undefined)
result: > 100 µM (inactive)

query: # query: GI50 of entry COc1ccc(CNC(C)C(=O)O)cc1 (centres undefined)
result: > 100 µM (inactive)

query: # query: GI50 of entry O=C1c2ccccc2/C(=N\c2ccc3ccccc3c2)C1(C1=C(c2ccccc2)/C(=N/c2ccc3ccccc3c2)c2ccccc21)c1ccccc1 (centres undefined)
result: 4.14 µM (inactive)

query: # query: GI50 of entry "CCCC(=O)n1[nH]c(=O)n(-c2ccc(Cl)cc2)c1=O"
result: > 100 µM (inactive)

query: # query: GI50 of entry "COC(=O)c1c/c(=N\NC(=O)CC(=O)Nc2ccc(C)cc2)c2ccccc2o1"
result: > 100 µM (inactive)

query: # query: GI50 of entry "O=c1c(C(c2ccc3ccccc3c2)c2c(O)oc3cc(O)ccc3c2=O)c(O)oc2cc(O)ccc12"
result: 30.6 µM (inactive)

query: # query: GI50 of entry "C[C@@]12CC[C@H]3[C@@H]4CCC(=O)N[C@@]4(C)CC[C@@H]3[C@@]1(C)CC[C@H](OC(=O)Cc1ccc(N(CCCl)CCCl)cc1)C2"
result: 22.7 µM (inactive)

query: # query: GI50 of entry "COc1ccc2c(c1OC)C(=O)O[C@@H]2[C@H]1c2cc3c(cc2CCN1C)OCO3"
result: > 100 µM (inactive)

query: # query: GI50 of entry "O=C(/C=C/c1ccc2c(c1)OCO2)NCCc1ccco1"
result: > 100 µM (inactive)

query: # query: GI50 of entry O=C(O)C1CCCCC1C(=O)Nn1cnnc1 (centres undefined)
result: > 100 µM (inactive)

query: # query: GI50 of entry COc1c2c(cc3oc(C)cc(=O)c13)OC(=N)C(C(N)=O)C2CC(=O)c1ccc(N)cc1 (centres undefined)
result: > 100 µM (inactive)

query: # query: GI50 of entry "O=[N+]([O-])c1cccc2nc3ccccc3c(NCCCN3CCCCC3)c12"
result: 0.014 µM (active)

query: # query: GI50 of entry "CNC(=O)/C(=C/c1ccc(OC)cc1)c1cc(OC)c(OC)c(OC)c1"
result: 0.598 µM (active)

query: # query: GI50 of entry "O=S(=O)(O)c1c(/N=N/c2c(O)ccc3ccccc23)ccc2ccccc12"
result: > 100 µM (inactive)

query: # query: GI50 of entry "C=C1c2nc3ccccc3n2C=C(c2ccc(Cl)cc2)N1c1ccccc1"
result: 12.3 µM (inactive)

query: # query: GI50 of entry COc1ccc(N2C(=O)C3c4[nH]c5ccc(OC)cc5c4C4CCC(c5ccccc5)CC4C3C2=O)cc1 (centres undefined)
result: 14.2 µM (inactive)

###

# Tested on: NCI-H226
# protocol: NCI tumour cell line growth inhibition, 48 h
The source made the active and inactive calls. Cut-off read from the data, not from the text of the source: active = GI50 up to about 1.1 µM and inactive = higher.
In this exercise, the only acceptable responses are true = active, false = inactive

query: Call for entry "CC1=C2CC(C)(C)/C=C\C(=O)/C(C)=C\C3=C[C@H](C)C[C@]3(O2)C1=O" :
result: false

query: Call for entry "O=C(Nc1ccc(Cl)c(Cl)c1)C(=O)Nn1c(S)nc2ccccc2c1=O" :
result: false

query: Call for entry "CS(=O)(=O)Nc1ccc(Nc2ccnc3ccc4[nH]ccc4c23)cc1" :
result: false

query: Call for entry COP(C)(=O)C(Cc1c[nH]c2ccccc12)NC(=O)OCc1ccccc1 (configuration not stated) :
result: false

query: Call for entry CCCCCCCCCCCCCCCCOCC(CCl)OP(=O)(O)OP(=O)(O)OCC1OC(n2ccc(N)nc2=O)C(O)C1O (configuration not stated) :
result: false

query: Call for entry "C/C(CC(=O)Nc1ccc([N+](=O)[O-])cc1)=N\Nc1ccc([N+](=O)[O-])cc1[N+](=O)[O-]" :
result: false

query: Call for entry "CCCCSC1=N/C(=C\c2ccccc2O)C(Cl)=N1" :
result: false

query: Call for entry O=C1C2C3C=CC(C2C(=O)N1CN1CCSCC1)C1C2C(=O)N(CN4CCSCC4)C(=O)C2C31 (configuration not stated) :
result: false

query: Call for entry "Cn1c2c([N+](=O)[O-])[se]nc2c(=O)n1-c1ccc([N+](=O)[O-])cc1" :
result: false

query: Call for entry C=C(Cl)C(C)(Cl)CCC(Cl)C(C)C (configuration not stated) :
result: false

query: Call for entry OC1NC2CC3NC(O)C(O)NC3CC2NC1O (configuration not stated) :
result: false

query: Call for entry BrC1(c2ccccc2)C[n+]2c(-c3ccccc3)cc(-c3ccccc3)cc2-c2ccccc21 (configuration not stated) :
result: true

query: Call for entry Cc1ccc(CCNC(=S)SCC(NC(=O)CCC(N)C(=O)O)C(=O)NCC(=O)O)cc1 (configuration not stated) :
result: false

query: Call for entry NC(CCCNCc1ccccc1O)C(=O)O (configuration not stated) :
result: false

query: Call for entry "N=c1oc2ccccc2cc1-c1nc2ccccc2c(=O)[nH]1" :
result: false

query: Call for entry "Oc1cc(-c2cccc3ccccc23)nc2ncccc12" :
result: true

query: Call for entry c1ccc(CN[C@]23C4C5CC6C7C5C2C7[C@@](NCc2ccccc2)(C64)N3Cc2ccccc2)cc1 (some centres not stated) :
result: false

query: Call for entry "Cc1nc(O)nc2nc3ccc(Cl)cc3c(NC(C)(CO)CO)c12" :
result: false

query: Call for entry O=C1C2CCCCC2C(=O)N1n1c(-c2ccccc2)n[nH]c1=O (configuration not stated) :
result: false

query: Call for entry "CN1CCN(CCNc2ccc(CO)c3sc4ccccc4c(=O)c23)CC1" :
result: false

query: Call for entry "CN(c1ccccc1)S(=O)(=O)c1ccccc1[N+](=O)[O-]" :
result: false

query: Call for entry "Cc1ccc2nc(-c3ccc(N)c(Br)c3)sc2c1" :
result: false

query: Call for entry "CC(=O)Nc1ccc(S(=O)(=O)N/N=C/CN2C(=O)c3ccccc3C2=O)cc1" :
result: false

query: Call for entry "COc1ccc(CN[C@H]2CCc3cc(OC)c(OC)c(OC)c3-c3ccc(SC)c(=O)cc32)c(OC)c1OC" :
result: true

query: Call for entry CC(C)(C)OC(=O)NC(Cc1ccc(OCc2ccccc2)cn1)C(=O)O (configuration not stated) :
result: false

query: Call for entry CNC(=O)c1ccccc1-[s+]1c2ccccc2c(=O)n1C (configuration not stated) :
result: false

query: Call for entry "CN(CCCCN(C)CCc1ccc(Cl)c(Cl)c1)CCCCN1CCCC1" :
result: false

query: Call for entry CCN(CC)CC(C(=O)Nc1c(C)cccc1C)/C(C)=N\NC(=O)C[N+](C)(C)C (configuration not stated) :
result: false

query: Call for entry "O=c1c2cccc3cccc(c4oc5c6cccc7cccc(c(=O)c5c14)c76)c32" :
result: false

query: Call for entry CC(=O)OC1CC(O)CC2=CCC3C4CCC(C(C)(O)C(O)CC5COC(=O)C5C)C4(C)CCC3C21C (configuration not stated) :
result: false

query: Call for entry "CC1=C(C(=O)CC(=O)C(=O)Nc2ccccc2)Sc2ccccc2N1" :
result: false

query: Call for entry "COc1ccc(-c2cc(-c3ccccc3)c(C#N)c(=O)[nH]2)cc1" :
result: false

query: Call for entry "CCOC(=O)C(C(=O)OCC)=C1C=C(c2ccccc2)c2ccccc21" :
result: false

query: Call for entry CCOC(=O)c1c(N)sc2c1CC(C)CC2 (configuration not stated) :
result: false

query: Call for entry OCC(O)C(O)C(O)c1nn(-c2ccccc2)c2nc3cc(Cl)c(Cl)cc3nc12 (configuration not stated) :
result: false

query: Call for entry "Cc1ccc([Se](=C(C(=O)c2ccccc2)C(=O)c2ccccc2)c2ccc(C)cc2)cc1" :
result: false

query: Call for entry "O=c1c2cc([N+](=O)[O-])ccc2n2n1CCCC2" :
result: false

query: Call for entry "COC(=O)c1c/c(=N\NC(=O)CC(=O)Nc2ccc(C)cc2)c2ccccc2o1" :
result: false

query: Call for entry "COc1ccc2c(C=O)c3n(c(=O)c2c1OC)CCc1cc2c(cc1-3)OCO2" :
result: false

query: Call for entry C=CCCCCCCCCCP(=O)(c1ccccc1)c1ccc2c(c1)OCCOCCOCCOCCO2 (configuration not stated) :
result: false

query: Call for entry C=CCC1C(=O)Nc2cccc3ncn(c23)C1=O (configuration not stated) :
result: false

query: Call for entry "C=C1CCCC(C)(C)[C@@H]1CC/C(C)=C/Cn1c2cccc(=O)c-2nc2ccccc21" :
result: false
